The measurements presented in this section are drawn from patent US20240002477A1.

- Target Under Test: T1, SARS-CoV-2 ORF8 protein (SARS-CoV-2, UniProt P0DTC8 16-121)
- T1 construct: domain: Ig-like domains; also called open reading frame 8
- T1 sequence (P0DTC8 16-121, tags left off): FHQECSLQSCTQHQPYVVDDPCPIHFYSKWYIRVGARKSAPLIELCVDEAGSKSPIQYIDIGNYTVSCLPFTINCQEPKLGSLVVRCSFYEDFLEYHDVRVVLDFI
- Measurement Description: mAb table, Specificity column (recombinant IgG1; ELISA)
Measurement Type: binding result

[[record]]
binder = "S24-1345 (antibody, V domains shown) VH: QLQLQESGPGLVKPSETLSLTCTVSGGSISSSSYYWGWIRQPPGKGLEWIGSIYYSGSTYYNPSLKSRVTISVDTSKNQFSLKLSSVTAADTAVYYCARRIRRPTSEVVITYVFDYWGQGTLVTVSS VL: AIQLTQSPSSLSASVGDRVTITCRASQGISSALAWYQQKPGKAPKLLIYDASSLESGVPSRFSGSGSGTDFTLTISSLQPEDFATYYCQQFNSYLTFGGGTKVEIK"
readout_value = "binds"

[[record]]
binder = "S24-636 (antibody, V domains shown) VH: EVQLVESGGGLVQPGGSLRLSCAASGFTLSSYWMSWVRQAPGKGLEWVANIKQDGSEKYYVDSVKGRFTISRDNAKNSLYLQMNSLRAEDTAVYYCARDLTATWFDPWGQGTLVTVSS VL: QTVVTQEPSFSVSPGGTVTLTCGLSSGSVSTSYYPSWYQQTPGQAPRTLIYSTNKRSSGVPDRFSGSILGNKAALTITGAQADDESDYYCVLYMGSGMSVFGGGTKLTVL"
readout_value = "binds"

[[record]]
binder = "S24-1378 (antibody, V domains shown, recombinant human IgG1) VH: EVQLVESGGGLVQPGGSLRLSCAASGFTVSSNYMSWVRQAPGKGLEWVSVIYSGGSTYYADSVKGRFTISRHNSKNTLYLQMNSLRAEDTAVYYCAREGYCTNGVCYRHAFDIWGQGTMVTVSS VL: QTVVTQEPSFSVSPGGTVTLTCGLSSGSVSTSYYPSWYQQTPGQAPRTLIYSTNTRSSGVPDRFSGSILGNKAALTITGAQADDESDYYCVLYMGSGISVFGGGTKLTVL"
readout_value = "binds"

